Molecular target: AChE (Electrophorus electricus, UniProt O42275)
Sequence (O42275 24-633): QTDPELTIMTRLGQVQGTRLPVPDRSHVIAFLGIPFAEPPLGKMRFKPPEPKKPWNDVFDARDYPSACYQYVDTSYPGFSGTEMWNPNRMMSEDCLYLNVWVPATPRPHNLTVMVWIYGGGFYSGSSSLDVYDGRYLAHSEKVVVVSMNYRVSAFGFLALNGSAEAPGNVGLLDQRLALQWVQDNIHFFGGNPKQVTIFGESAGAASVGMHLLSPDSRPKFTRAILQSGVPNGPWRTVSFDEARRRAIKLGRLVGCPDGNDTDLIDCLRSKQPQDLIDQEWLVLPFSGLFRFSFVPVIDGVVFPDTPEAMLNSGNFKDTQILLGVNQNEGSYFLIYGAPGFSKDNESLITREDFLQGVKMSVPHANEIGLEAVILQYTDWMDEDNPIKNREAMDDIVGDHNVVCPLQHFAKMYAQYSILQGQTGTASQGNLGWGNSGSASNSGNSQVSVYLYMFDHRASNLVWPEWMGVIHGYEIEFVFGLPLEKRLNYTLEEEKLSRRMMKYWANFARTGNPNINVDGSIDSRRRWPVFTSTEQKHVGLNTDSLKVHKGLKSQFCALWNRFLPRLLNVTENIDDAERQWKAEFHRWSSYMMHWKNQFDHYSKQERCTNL
Assay: AChE inhibition, in vitro modified Ellman's spectrophotometric method
Assay type: biochemical
Conditions: read-out: AChE % Inhibition
observationType: inhibition at 100 µM (%)

O=C1CSc2ccc(C(=O)CSc3nnc(Nc4ccc(Cl)cc4)s3)cc2N1 : 92.3
CCNc1nnc(SCC(=O)c2ccc3c(c2)NC(=O)CS3)s1 : 48.8
O=C1CSc2ccc(C(=O)CSc3nnc(NC4CCCCC4)s3)cc2N1 : 45
O=C1CSc2ccc(C(=O)CSc3nnc(Nc4ccccc4)s3)cc2N1 : 44.5
CC(C)Nc1nnc(SCC(=O)c2ccc3c(c2)NC(=O)CS3)s1 : 40.1
CC(C)CNc1nnc(SCC(=O)c2ccc3c(c2)NC(=O)CS3)s1 : 46.2
CCCCNc1nnc(SCC(=O)c2ccc3c(c2)NC(=O)CS3)s1 : 47.3
Cc1ccc(Nc2nnc(SCC(=O)c3ccc4c(c3)NC(=O)CS4)s2)cc1 : 42.7
COc1ccc(Nc2nnc(SCC(=O)c3ccc4c(c3)NC(=O)CS4)s2)cc1 : 90.5
CCCNc1nnc(SCC(=O)c2ccc3c(c2)NC(=O)CS3)s1 : 45.6
